# TARGET_OR_TEST_SYSTEM: T1, full length human tau protein 2N4R (hT40) (human, UniProt P10636 1-758)
# T1 construct: recombinant; also called T441
# T1 sequence (P10636 other isoform, or with tags, fused parts or gaps limits assumed): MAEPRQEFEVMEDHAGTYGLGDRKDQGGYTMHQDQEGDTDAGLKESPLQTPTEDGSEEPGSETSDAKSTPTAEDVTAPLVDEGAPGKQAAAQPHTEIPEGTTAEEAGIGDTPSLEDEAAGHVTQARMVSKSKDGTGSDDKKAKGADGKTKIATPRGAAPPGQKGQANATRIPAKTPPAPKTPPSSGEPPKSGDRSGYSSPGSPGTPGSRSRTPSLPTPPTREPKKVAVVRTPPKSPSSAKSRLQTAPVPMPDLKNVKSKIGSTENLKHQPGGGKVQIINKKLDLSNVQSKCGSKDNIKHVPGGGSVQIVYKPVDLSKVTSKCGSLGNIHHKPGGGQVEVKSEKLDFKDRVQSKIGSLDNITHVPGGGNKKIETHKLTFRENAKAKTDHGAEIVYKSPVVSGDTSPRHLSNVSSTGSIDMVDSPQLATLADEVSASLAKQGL
# TEST_DETAILS: SPR, scAb captured, tau analyte
Recorded pKd by entry
FYI, pKd means -log10 of a concentration in mol per litre.

- S1E12 scAb (scFv, not shown: small tags and cut ends, scAb) scFv: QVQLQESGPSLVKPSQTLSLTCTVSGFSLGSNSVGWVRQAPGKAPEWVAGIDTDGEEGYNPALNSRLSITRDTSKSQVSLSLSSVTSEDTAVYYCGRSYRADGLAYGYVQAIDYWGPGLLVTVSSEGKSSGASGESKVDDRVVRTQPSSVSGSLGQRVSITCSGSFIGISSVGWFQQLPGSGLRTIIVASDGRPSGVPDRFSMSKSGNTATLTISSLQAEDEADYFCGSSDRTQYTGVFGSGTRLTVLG: 9.08
- CE2 scAb (scFv, not shown: small tags and cut ends, scAb) scFv: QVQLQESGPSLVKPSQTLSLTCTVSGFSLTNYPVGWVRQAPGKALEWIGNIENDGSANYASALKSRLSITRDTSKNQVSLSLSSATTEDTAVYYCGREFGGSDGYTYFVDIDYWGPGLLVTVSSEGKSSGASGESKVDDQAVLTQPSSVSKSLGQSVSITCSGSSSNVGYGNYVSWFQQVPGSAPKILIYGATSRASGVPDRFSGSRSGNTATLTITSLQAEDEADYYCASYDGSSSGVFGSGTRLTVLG: 8.30

Proceed to the following item.
Consider S1D12 scAb (scFv, not shown: small tags and cut ends, scAb) scFv: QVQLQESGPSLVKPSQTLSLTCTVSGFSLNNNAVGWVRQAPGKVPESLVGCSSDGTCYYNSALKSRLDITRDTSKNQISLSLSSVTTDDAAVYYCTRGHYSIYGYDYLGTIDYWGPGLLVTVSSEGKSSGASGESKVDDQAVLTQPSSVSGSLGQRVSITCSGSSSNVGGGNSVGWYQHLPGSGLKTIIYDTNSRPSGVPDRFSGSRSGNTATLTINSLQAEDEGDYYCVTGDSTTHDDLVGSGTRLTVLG . Its measured pKd is 9.91
